method: SAXS/WAXS of fibrils, elliptical cylinder model fit
Type: physicochemical
condition.parameters: SAXS, elliptical cylinder model fit, 2.0 mM, day 7 at 21 °C, pH 8.0
Residues, ends and D or L forms follow the SMILES beside them.
Provide the recorded Fibril axis ratio for the entries that follow.

Qu. Any idea what its Fibril axis ratio is? The compound is CC[C@H](C)[C@H](NC(=O)[C@H](CO)NC(=O)[C@H](Cc1ccccc1)NC(C)=O)C(=O)N[C@@H](CCC(N)=O)C(=O)N[C@@H](Cc1ccc(O)cc1)C(=O)N[C@H](C(=O)N[C@@H](Cc1ccc(O)cc1)C(=O)N[C@@H](Cc1c[nH]cn1)C(=O)N[C@H](C(=O)N[C@@H](CC(=O)O)C(N)=O)C(C)C)[C@@H](C)O [P3] (Ac-FSIQYTYHVD-NH2)
Ans. 3.2

Qu. Try this compound next: CC[C@H](C)[C@H](NC(=O)[C@H](CO)NC(=O)[C@H](Cc1ccccc1)NC(=O)[C@H](CO)NC(C)=O)C(=O)N[C@@H](CCC(N)=O)C(=O)N[C@@H](Cc1ccc(O)cc1)C(=O)N[C@H](C(=O)N[C@@H](Cc1ccc(O)cc1)C(=O)N[C@@H](Cc1c[nH]cn1)C(=O)N[C@H](C(=O)N[C@@H](CC(=O)O)C(N)=O)C(C)C)[C@@H](C)O [P2] (Ac-SFSIQYTYHVD-NH2)
Ans. 3.5

Qu. Try this compound next: CC[C@H](C)[C@H](NC(C)=O)C(=O)N[C@@H](CCC(N)=O)C(=O)N[C@@H](Cc1ccc(O)cc1)C(=O)N[C@H](C(=O)N[C@@H](Cc1ccc(O)cc1)C(=O)N[C@@H](Cc1c[nH]cn1)C(=O)N[C@H](C(=O)N[C@@H](CC(=O)O)C(N)=O)C(C)C)[C@@H](C)O [P5] (Ac-IQYTYHVD-NH2)
Ans. 1.9

Qu. Try this compound next: CC(=O)N[C@@H](CCC(N)=O)C(=O)N[C@@H](Cc1ccc(O)cc1)C(=O)N[C@H](C(=O)N[C@@H](Cc1ccc(O)cc1)C(=O)N[C@@H](Cc1c[nH]cn1)C(=O)N[C@H](C(=O)N[C@@H](CC(=O)O)C(N)=O)C(C)C)[C@@H](C)O [P6] (Ac-QYTYHVD-NH2)
Ans. 1.9

---

method: SAXS/WAXS of fibrils, elliptical cylinder model fit
Format: physicochemical
condition.parameters: SAXS, elliptical cylinder model fit, 2.0 mM, day 7 at 21 °C, pH 8.0
Residues, ends and D or L forms follow the SMILES beside them.
Provide the recorded Fibril axis ratio for the entries that follow.
Please respond with just the number, no unit label.

Qu. Any idea what its Fibril axis ratio is? The molecule is CC[C@H](C)[C@H](NC(=O)[C@H](CO)NC(=O)[C@H](Cc1ccccc1)NC(=O)[C@H](CO)NC(=O)CNC(C)=O)C(=O)N[C@@H](CCC(N)=O)C(=O)N[C@@H](Cc1ccc(O)cc1)C(=O)N[C@H](C(=O)N[C@@H](Cc1ccc(O)cc1)C(=O)N[C@@H](Cc1c[nH]cn1)C(=O)N[C@H](C(=O)N[C@@H](CC(=O)O)C(N)=O)C(C)C)[C@@H](C)O [P1] (Ac-GSFSIQYTYHVD-NH2)
Ans. 2.5

Qu. Try this molecule next: CC[C@H](C)[C@H](NC(=O)[C@H](CO)NC(C)=O)C(=O)N[C@@H](CCC(N)=O)C(=O)N[C@@H](Cc1ccc(O)cc1)C(=O)N[C@H](C(=O)N[C@@H](Cc1ccc(O)cc1)C(=O)N[C@@H](Cc1c[nH]cn1)C(=O)N[C@H](C(=O)N[C@@H](CC(=O)O)C(N)=O)C(C)C)[C@@H](C)O [P4] (Ac-SIQYTYHVD-NH2)
Ans. 2.1

Qu. Try this molecule next: CC[C@H](C)[C@H](NC(=O)[C@H](CO)NC(=O)[C@H](Cc1ccccc1)NC(=O)[C@H](CO)NC(=O)CNC(=O)[C@H](CCCCN)NC(C)=O)C(=O)N[C@@H](CCC(N)=O)C(=O)N[C@@H](Cc1ccc(O)cc1)C(=O)N[C@H](C(=O)N[C@@H](Cc1ccc(O)cc1)C(=O)N[C@@H](Cc1c[nH]cn1)C(=O)N[C@H](C(=O)N[C@@H](CC(=O)O)C(N)=O)C(C)C)[C@@H](C)O [P0] (Ac-KGSFSIQYTYHVD-NH2)
Ans. 2.8

---

method: SAXS/WAXS of fibrils, elliptical cylinder model fit
Type: physicochemical
condition.parameters: SAXS, elliptical cylinder model fit, 2.0 mM, day 7 at 21 °C, pH 8.0
Residues, ends and D or L forms follow the SMILES beside them.
Label criterion met when Fibril cross-sectional area is strictly below 30 nm^2; at or above that, label criterion not met.

Qu. Fibril cross-sectional area under 30 nm^2? Item: CC(=O)N[C@@H](CCC(N)=O)C(=O)N[C@@H](Cc1ccc(O)cc1)C(=O)N[C@H](C(=O)N[C@@H](Cc1ccc(O)cc1)C(=O)N[C@@H](Cc1c[nH]cn1)C(=O)N[C@H](C(=O)N[C@@H](CC(=O)O)C(N)=O)C(C)C)[C@@H](C)O [P6] (Ac-QYTYHVD-NH2)
Ans. criterion not met

Qu. Try this compound next: CC[C@H](C)[C@H](NC(=O)[C@H](CO)NC(C)=O)C(=O)N[C@@H](CCC(N)=O)C(=O)N[C@@H](Cc1ccc(O)cc1)C(=O)N[C@H](C(=O)N[C@@H](Cc1ccc(O)cc1)C(=O)N[C@@H](Cc1c[nH]cn1)C(=O)N[C@H](C(=O)N[C@@H](CC(=O)O)C(N)=O)C(C)C)[C@@H](C)O [P4] (Ac-SIQYTYHVD-NH2)
Ans. criterion not met

Qu. Try this compound next: CC[C@H](C)[C@H](NC(=O)[C@H](CO)NC(=O)[C@H](Cc1ccccc1)NC(=O)[C@H](CO)NC(=O)CNC(C)=O)C(=O)N[C@@H](CCC(N)=O)C(=O)N[C@@H](Cc1ccc(O)cc1)C(=O)N[C@H](C(=O)N[C@@H](Cc1ccc(O)cc1)C(=O)N[C@@H](Cc1c[nH]cn1)C(=O)N[C@H](C(=O)N[C@@H](CC(=O)O)C(N)=O)C(C)C)[C@@H](C)O [P1] (Ac-GSFSIQYTYHVD-NH2)
Ans. criterion met

Qu. Try this compound next: CC[C@H](C)[C@H](NC(=O)[C@H](CO)NC(=O)[C@H](Cc1ccccc1)NC(=O)[C@H](CO)NC(=O)CNC(=O)[C@H](CCCCN)NC(C)=O)C(=O)N[C@@H](CCC(N)=O)C(=O)N[C@@H](Cc1ccc(O)cc1)C(=O)N[C@H](C(=O)N[C@@H](Cc1ccc(O)cc1)C(=O)N[C@@H](Cc1c[nH]cn1)C(=O)N[C@H](C(=O)N[C@@H](CC(=O)O)C(N)=O)C(C)C)[C@@H](C)O [P0] (Ac-KGSFSIQYTYHVD-NH2)
Ans. criterion met

Qu. Try this compound next: CC[C@H](C)[C@H](NC(=O)[C@H](CO)NC(=O)[C@H](Cc1ccccc1)NC(=O)[C@H](CO)NC(C)=O)C(=O)N[C@@H](CCC(N)=O)C(=O)N[C@@H](Cc1ccc(O)cc1)C(=O)N[C@H](C(=O)N[C@@H](Cc1ccc(O)cc1)C(=O)N[C@@H](Cc1c[nH]cn1)C(=O)N[C@H](C(=O)N[C@@H](CC(=O)O)C(N)=O)C(C)C)[C@@H](C)O [P2] (Ac-SFSIQYTYHVD-NH2)
Ans. criterion not met

Qu. Try this compound next: CC[C@H](C)[C@H](NC(C)=O)C(=O)N[C@@H](CCC(N)=O)C(=O)N[C@@H](Cc1ccc(O)cc1)C(=O)N[C@H](C(=O)N[C@@H](Cc1ccc(O)cc1)C(=O)N[C@@H](Cc1c[nH]cn1)C(=O)N[C@H](C(=O)N[C@@H](CC(=O)O)C(N)=O)C(C)C)[C@@H](C)O [P5] (Ac-IQYTYHVD-NH2)
Ans. criterion not met

Qu. Try this compound next: CC[C@H](C)[C@H](NC(=O)[C@H](CO)NC(=O)[C@H](Cc1ccccc1)NC(C)=O)C(=O)N[C@@H](CCC(N)=O)C(=O)N[C@@H](Cc1ccc(O)cc1)C(=O)N[C@H](C(=O)N[C@@H](Cc1ccc(O)cc1)C(=O)N[C@@H](Cc1c[nH]cn1)C(=O)N[C@H](C(=O)N[C@@H](CC(=O)O)C(N)=O)C(C)C)[C@@H](C)O [P3] (Ac-FSIQYTYHVD-NH2)
Ans. criterion not met

---

method: SAXS/WAXS of fibrils, elliptical cylinder model fit
Type: physicochemical
condition.parameters: SAXS, elliptical cylinder model fit, 2.0 mM, day 7 at 21 °C, pH 8.0
Residues, ends and D or L forms follow the SMILES beside them.
Threshold check on Fibril minor radius (minor semiaxis): at or above 2 nm gives Met, strictly below gives Not met.

Qu. hey, is Fibril minor radius (minor semiaxis) for this one >= 2 nm? CC(=O)N[C@@H](CCC(N)=O)C(=O)N[C@@H](Cc1ccc(O)cc1)C(=O)N[C@H](C(=O)N[C@@H](Cc1ccc(O)cc1)C(=O)N[C@@H](Cc1c[nH]cn1)C(=O)N[C@H](C(=O)N[C@@H](CC(=O)O)C(N)=O)C(C)C)[C@@H](C)O [P6] (Ac-QYTYHVD-NH2)
Ans. Met

Qu. Try this compound next: CC[C@H](C)[C@H](NC(=O)[C@H](CO)NC(=O)[C@H](Cc1ccccc1)NC(=O)[C@H](CO)NC(C)=O)C(=O)N[C@@H](CCC(N)=O)C(=O)N[C@@H](Cc1ccc(O)cc1)C(=O)N[C@H](C(=O)N[C@@H](Cc1ccc(O)cc1)C(=O)N[C@@H](Cc1c[nH]cn1)C(=O)N[C@H](C(=O)N[C@@H](CC(=O)O)C(N)=O)C(C)C)[C@@H](C)O [P2] (Ac-SFSIQYTYHVD-NH2)
Ans. Not met

Qu. Try this compound next: CC[C@H](C)[C@H](NC(=O)[C@H](CO)NC(=O)[C@H](Cc1ccccc1)NC(=O)[C@H](CO)NC(=O)CNC(C)=O)C(=O)N[C@@H](CCC(N)=O)C(=O)N[C@@H](Cc1ccc(O)cc1)C(=O)N[C@H](C(=O)N[C@@H](Cc1ccc(O)cc1)C(=O)N[C@@H](Cc1c[nH]cn1)C(=O)N[C@H](C(=O)N[C@@H](CC(=O)O)C(N)=O)C(C)C)[C@@H](C)O [P1] (Ac-GSFSIQYTYHVD-NH2)
Ans. Not met

Qu. Try this compound next: CC[C@H](C)[C@H](NC(=O)[C@H](CO)NC(=O)[C@H](Cc1ccccc1)NC(=O)[C@H](CO)NC(=O)CNC(=O)[C@H](CCCCN)NC(C)=O)C(=O)N[C@@H](CCC(N)=O)C(=O)N[C@@H](Cc1ccc(O)cc1)C(=O)N[C@H](C(=O)N[C@@H](Cc1ccc(O)cc1)C(=O)N[C@@H](Cc1c[nH]cn1)C(=O)N[C@H](C(=O)N[C@@H](CC(=O)O)C(N)=O)C(C)C)[C@@H](C)O [P0] (Ac-KGSFSIQYTYHVD-NH2)
Ans. Not met

Qu. Try this compound next: CC[C@H](C)[C@H](NC(=O)[C@H](CO)NC(=O)[C@H](Cc1ccccc1)NC(C)=O)C(=O)N[C@@H](CCC(N)=O)C(=O)N[C@@H](Cc1ccc(O)cc1)C(=O)N[C@H](C(=O)N[C@@H](Cc1ccc(O)cc1)C(=O)N[C@@H](Cc1c[nH]cn1)C(=O)N[C@H](C(=O)N[C@@H](CC(=O)O)C(N)=O)C(C)C)[C@@H](C)O [P3] (Ac-FSIQYTYHVD-NH2)
Ans. Not met

Qu. Try this compound next: CC[C@H](C)[C@H](NC(C)=O)C(=O)N[C@@H](CCC(N)=O)C(=O)N[C@@H](Cc1ccc(O)cc1)C(=O)N[C@H](C(=O)N[C@@H](Cc1ccc(O)cc1)C(=O)N[C@@H](Cc1c[nH]cn1)C(=O)N[C@H](C(=O)N[C@@H](CC(=O)O)C(N)=O)C(C)C)[C@@H](C)O [P5] (Ac-IQYTYHVD-NH2)
Ans. Met
